study.target: Glutamate receptor 1 (Rattus norvegicus)
test.description: Activity at rat cloned iGluR1 expressed in human HEK293 cells by calcium imaging assay relative to L-glutamate
Format: cell-based
Set-up: concentration or dose not given beside the values
experimental.readout: Activity (%)
Express the result in % but write the number alone.

Recorded Activity, per entry:
Consider the molecule shown here: "N[C@@H](C(=O)O)[C@@H]1CC(O)=NO1" What is its recorded Activity?
13

Which Activity value belongs to "N[C@H](C(=O)O)[C@@H]1CC(O)=NO1" ?
90

// Activity lookup, key: "N[C@@H](C(=O)O)[C@H]1CC(O)=NO1"
15

Others:
Quick one: Activity for "N[C@H](C(=O)O)[C@H]1CC(O)=NO1" ?
35

Consider the molecule shown here: "N[C@H](C(=O)O)c1cc(O)no1" What is its recorded Activity?
6
